# system_under_test: Histone deacetylase (Homo sapiens) (UniProt Q13547+O15379+Q9UBN7+Q92769+Q9UQL6+Q8WUI4+Q9BY41+Q96DB2+P56524+Q9UKV0+Q969S8)
# experimental_conditions: HeLa, at 10 µM
# Description: Inhibition of HDAC in human HeLa cells using Fluor de Lys as substrate at 10 uM by fluorescence assay
test_readout: inhibition (%)

**Query** Entry `O=C(/C=C/c1ccc2c(c1)Cc1sc(Nc3cccnc3)nc1-2)NO` has what inhibition?
**Result** 96.5

**Query** Lookup `Cc1ccc(Nc2nc3c(s2)Cc2cc(/C=C/C(=O)NO)ccc2-3)cc1`
**Result** 95.9

**Query** Lookup `CCCNc1nc2c(s1)Cc1cc(/C=C/C(=O)NO)ccc1-2`
**Result** 93.3

**Query** Record: `O=C(/C=C/c1ccc2c(c1)Cc1sc(Nc3ccc(Cl)cc3)nc1-2)NO`
**Result** 95.3

**Query** Entry `CC(C)Nc1nc2c(s1)Cc1cc(/C=C/C(=O)NO)ccc1-2` please
**Result** 97.5

**Query** `O=C(/C=C/c1ccc2c(c1)Cc1sc(NC3CCCCC3)nc1-2)NO` ?
**Result** 93.6

====

# system_under_test: Histone deacetylase (Homo sapiens) (UniProt Q13547+O15379+Q9UBN7+Q92769+Q9UQL6+Q8WUI4+Q9BY41+Q96DB2+P56524+Q9UKV0+Q969S8)
# experimental_conditions: HeLa, at 10 µM
test_readout: inhibition (%)

**Query** Which measured inhibition value corresponds to `Cc1cc(C)c(Nc2nc3c(s2)Cc2cc(/C=C/C(=O)NO)ccc2-3)c(C)c1` ?
**Result** 90

**Query** # repeat for `COc1ccc(Nc2nc3c(s2)Cc2cc(/C=C/C(=O)NO)ccc2-3)cc1`
**Result** 95.5

**Query** Also `CC(C)(C)Nc1nc2c(s1)Cc1cc(/C=C/C(=O)NO)ccc1-2` ?
**Result** 95.3

**Query** Please give the result for `O=C(/C=C/c1ccc2c(c1)Cc1sc(Nc3ccncc3)nc1-2)NO` too.
**Result** 93.9

**Query** Cool, now `O=C(/C=C/c1ccc2c(c1)Cc1sc(Nc3ccccn3)nc1-2)NO`
**Result** 77.7

**Query** Now consider `COCCNc1nc2c(s1)Cc1cc(/C=C/C(=O)NO)ccc1-2` and answer again.
**Result** 97.4

**Query** Also, `O=C(/C=C/c1ccc2c(c1)Cc1sc(Nc3ccccc3)nc1-2)NO` please.
**Result** 95.3

**Query** // same read-out, input: `O=C(/C=C/c1ccc2c(c1)Cc1sc(NCCN3CCOCC3)nc1-2)NO`
**Result** 97.2

**Query** Now give it for `O=C(/C=C/c1ccc2c(c1)Cc1sc(Nc3ccc(F)cc3F)nc1-2)NO` too.
**Result** 92.3

**Query** What do we get for `CN(C)c1nc2c(s1)Cc1cc(/C=C/C(=O)NO)ccc1-2` ?
**Result** 97

**Query** Then `COc1ccc(CNc2nc3c(s2)Cc2cc(/C=C/C(=O)NO)ccc2-3)cc1` ?
**Result** 86.2

**Query** Another compound: `O=C(/C=C/c1ccc2c(c1)Cc1sc(Nc3cccc(C(F)(F)F)c3)nc1-2)NO`
**Result** 86.3

====

# system_under_test: Histone deacetylase
# assay_details: Inhibition of HDAC in human HeLa cells using Fluor de Lys as substrate by fluorescence assay
# Format: cell-based
test_readout: IC50 (nM)

Before answering, review these 3 worked examples.
**Query** Tell me reported IC50 for `CN(C)c1nc2c(s1)Cc1cc(/C=C/C(=O)NO)ccc1-2` , tested with Histone deacetylase.
**Result** 157

**Query** And what about the compound `CC(C)Nc1nc2c(s1)Cc1cc(/C=C/C(=O)NO)ccc1-2` ?
**Result** 214

**Query** Check `COCCNc1nc2c(s1)Cc1cc(/C=C/C(=O)NO)ccc1-2` too.
**Result** 140

(a) O=C(/C=C/c1ccc2c(c1)Cc1sc(NCCN3CCOCC3)nc1-2)NO
(b) O=C(/C=C/c1ccc2c(c1)Cc1sc(Nc3cccnc3)nc1-2)NO
**Query** IC50 comparison. Which is larger, a or b ? Returns: label corresponding to the selected item.
**Result** b
(b: 298 nM, a: 164 nM)

Ref: ChEMBL document CHEMBL2385000
